Target: 5-HT2B (Homo sapiens, UniProt P41595)
Sequence (P41595 whole entry): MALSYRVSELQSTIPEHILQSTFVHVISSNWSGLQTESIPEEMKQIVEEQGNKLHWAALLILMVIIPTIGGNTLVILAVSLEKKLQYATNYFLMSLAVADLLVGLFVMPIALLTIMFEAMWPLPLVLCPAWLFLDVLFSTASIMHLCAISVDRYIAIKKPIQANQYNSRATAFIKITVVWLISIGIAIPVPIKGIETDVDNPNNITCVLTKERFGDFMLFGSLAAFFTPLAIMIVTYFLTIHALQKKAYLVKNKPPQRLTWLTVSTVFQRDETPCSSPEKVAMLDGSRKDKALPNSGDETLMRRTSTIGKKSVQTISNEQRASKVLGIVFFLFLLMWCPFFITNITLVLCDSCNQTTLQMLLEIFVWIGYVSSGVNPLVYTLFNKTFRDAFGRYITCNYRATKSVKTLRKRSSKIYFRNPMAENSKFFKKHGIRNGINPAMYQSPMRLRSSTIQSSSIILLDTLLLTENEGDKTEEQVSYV
Assay: IPOne (IP1 HTRF) assay, CHO-K1 cells expressing human 5-HT2B
Type: cell-based
Set-up: expressed in transfected cells; host or cells: CHO-K1
Conditions: CHO-K1; @30 uM; percentage of reference agonist α-Me-5-HT at its EC100
reported_endpoint: activation at 30 µM (%)
Just the number in %, nothing appended.

smiles	activation at 30 µM / %
CC[C@@H](O)[C@@H]1CCCN1CCc1c[nH]c2ccccc12	86.7

Supply activation at 30 µM measured with 5-HT2B (Homo sapiens, UniProt P41595) for OC[C@H]1CCCN1CCc1c[nH]c2ccccc12 .
33.9

Supply activation at 30 µM measured with 5-HT2B (Homo sapiens, UniProt P41595) for OC[C@@H]1CCCN1CCc1c[nH]c2ccccc12 .
97

* * *

Biological target: 5-HT2A (Homo sapiens)
Sequence (P28223 whole entry): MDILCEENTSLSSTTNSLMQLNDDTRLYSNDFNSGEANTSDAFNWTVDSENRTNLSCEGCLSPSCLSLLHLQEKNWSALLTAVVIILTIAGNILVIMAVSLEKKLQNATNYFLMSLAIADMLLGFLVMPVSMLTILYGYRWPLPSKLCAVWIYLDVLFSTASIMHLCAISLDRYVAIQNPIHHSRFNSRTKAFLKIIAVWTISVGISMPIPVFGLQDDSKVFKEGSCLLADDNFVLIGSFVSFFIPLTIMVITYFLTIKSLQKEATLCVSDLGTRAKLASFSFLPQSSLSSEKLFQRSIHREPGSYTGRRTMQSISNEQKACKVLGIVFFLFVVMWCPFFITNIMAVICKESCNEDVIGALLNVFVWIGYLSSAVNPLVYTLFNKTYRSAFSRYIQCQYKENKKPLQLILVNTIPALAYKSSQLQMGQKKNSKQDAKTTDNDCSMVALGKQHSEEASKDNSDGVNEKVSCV
Assay: IPOne (IP1 HTRF) assay, CHO-K1 cells expressing human 5-HT2A
Assay type: cell-based
Parameters: expressed in transfected cells; host or cells: CHO-K1
Details: CHO-K1, human 5-HT2A
Measured EC50, listed per entry.
Just the number in nM, nothing appended.

molecule	measure_unit	EC50
CCOC(=O)[C@@H]1CCCN1CCc1c[nH]c2ccccc12 [Compound 52]	nM	888
OC[C@@H]1CCN1CCc1c[nH]c2ccccc12 [Compound 54]	nM	249

Supply EC50 measured with 5-HT2A (Homo sapiens) for OC[C@@H]1CCCN1CCc1c[nH]c2cccc(O)c12 [Compound 49] .
22.5

* * *

Biological target: UniProt P28223
Experiment: IPOne (IP1 HTRF) assay, CHO-K1 cells expressing human 5-HT2A
Type: cell-based
Parameters: expressed in transfected cells; host or cells: CHO-K1
Details: CHO-K1; @30 uM; percentage of reference agonist α-Me-5-HT at its EC100
reported_endpoint: activation at 30 µM (%)
Just the number in %, nothing appended.

compound	activation at 30 µM [%]
OCC1CCCN1CCc1c[nH]c2cccc(O)c12 (centres unmarked)	99.2

Tell us which activation at 30 µM value is on record for COc1ccc2[nH]cc(CCN3CCCC3CO)c2c1 (centres unmarked)
100

Tell us which activation at 30 µM value is on record for OC[C@@H]1CCN1CCc1c[nH]c2ccccc12
101

Tell us which activation at 30 µM value is on record for COC(=O)[C@@H]1CCCN1CCc1c[nH]c2ncccc12
54.3

Tell us which activation at 30 µM value is on record for OC[C@@H]1CCCN1CCc1c[nH]c2ccc(OC(F)(F)F)cc12
88.3

* * *

Measured pEC50, listed per entry.
Target: UniProt P41595
Experiment: IPOne (IP1 HTRF) assay, CHO-K1 cells expressing human 5-HT2B
Assay type: cell-based
Design: expressed in transfected cells; host or cells: CHO-K1
Details: CHO-K1, human 5-HT2B
To interpret pEC50, take it as minus log10 of a concentration measured in moles per litre.

smiles	pEC50
OC[C@@H]1CCCN1CCc1c[nH]c2ccccc12	6.90
COC(=O)[C@@H]1CCCN1CCc1c[nH]c2ccccc12	6.34

Supply pEC50 measured with UniProt P41595 for COc1cccc2[nH]cc(CCN3CCC[C@H]3CO)c12 .
7.65

* * *

Target: 5-HT2A (Homo sapiens)
Test: IPOne (IP1 HTRF) assay, CHO-K1 cells expressing human 5-HT2A
Assay type: cell-based
Design: expressed in transfected cells; host or cells: CHO-K1
Details: CHO-K1; @30 uM; percentage of reference agonist α-Me-5-HT at its EC100
Measured activation at 30 µM, listed per entry.
Just the number in %, nothing appended.

Examples with answers:
smiles	measure_unit	observed_measurement
COC(=O)[C@@H]1CCCN1CCc1c[nH]c2ccccc12	%	94.4
OC[C@H]1CCN1CCc1c[nH]c2ccccc12	%	70.7
C[C@@]1(CO)CCCN1CCc1c[nH]c2ccccc12	%	1.82

Supply activation at 30 µM measured with 5-HT2A (Homo sapiens) for OC[C@@H]1CCCN1CCc1c[nH]c2ccccc12 .
99.5

All values here come from patent US20240116896A1.
